test system: sicklepod (Cassia obtusifolia, CASOB); test: Pre-emerge test, greenhouse herbicide activity screening; format: in vivo; conditions: pre-emerge, 250 g ai/ha, 14 days after application, rating scale 0-100
For each of the compounds below, state its phytotoxicity rating CASOB.
Kindly provide the number alone.

stdin: # get_value(readout='phytotoxicity rating CASOB', item= COc1c(Cl)cc(F)c(-n2c(=O)cc(C(F)(F)F)n(C)c2=O)c1NN )
stdout: 100

stdin: Field entry: COc1c(Cl)cc(F)c(-n2c(=O)cc(C(F)(F)F)n(C)c2=O)c1NN=CCCSC
stdout: 100

stdin: Field entry: CCOC(=O)C(Cl)Cc1c(C)c(Cl)cc(F)c1-n1c(=O)cc(C(F)(F)F)n(C)c1=O (centres unmarked)
stdout: 10

stdin: Field entry: COc1cc(Cl)cc(Cl)c1-n1c(=O)cc(C(F)(F)F)n(C)c1=O
stdout: 60

stdin: Field entry: COc1c(Cl)cc(F)c(-n2c(=O)cc(C(F)(F)F)n(C)c2=O)c1NN=CC1CC1
stdout: 100
